Biological target: KRas-mediated phosphorylation of ERK in A549 cells (Homo sapiens, UniProt P01116, G12S)
Construct: pERK HTRF read-out
Sequence (P01116 1-188 isoform P01116-2 G12S): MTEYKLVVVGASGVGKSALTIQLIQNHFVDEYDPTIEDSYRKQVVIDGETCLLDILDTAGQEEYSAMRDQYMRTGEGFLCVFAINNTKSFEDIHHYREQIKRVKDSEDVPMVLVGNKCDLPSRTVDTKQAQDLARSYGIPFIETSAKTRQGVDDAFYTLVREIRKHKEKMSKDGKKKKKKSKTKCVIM
Assay: Inhibition of KRas-mediated phosphorylation of ERK (HTRF), A549 cells
Type: cell-based
Settings: HTRF pERK, 3 h incubation
READOUT_TYPE: IC50 (nM)

[[record]]
compound = "CCc1c(F)ccc2cc(O)cc(-c3ncc4c(N5CCC(C(=O)OC)CC5)nc(OC[C@@]56CCCN5C[C@H](F)C6)nc4c3F)c12"
assayed_target = "KRas-mediated phosphorylation of ERK in A549 cells (Homo sapiens, UniProt P01116, G12S)"
readout_type = "IC50"
readout_value = 337

[[record]]
compound = "CCc1c(F)ccc2cc(O)cc(-c3c(F)cc4c(N5CCCC(C(=O)n6ccc(C)n6)CC5)nc(OC[C@@]56CCCN5C[C@H](F)C6)nc4c3F)c12 (stereo partly shown)"
assayed_target = "KRas-mediated phosphorylation of ERK in A549 cells (Homo sapiens, UniProt P01116, G12S)"
readout_type = "IC50"
readout_value = 507

[[record]]
compound = "C=Cc1ccn(C(=O)C2CCN(c3nc(OC[C@@]45CCCN4C[C@H](F)C5)nc4c(F)c(-c5cc(O)cc6ccc(F)c(CC)c56)ncc34)CC2)n1"
assayed_target = "KRas-mediated phosphorylation of ERK in A549 cells (Homo sapiens, UniProt P01116, G12S)"
readout_type = "IC50"
readout_value = 141

[[record]]
compound = "CON(C)C(=O)C1CCN(c2nc(OC[C@@]34CCCN3C[C@H](F)C4)nc3c(F)c(-c4ccc(F)c5sc(N)c(C#N)c45)c(Cl)cc23)CC1"
assayed_target = "KRas-mediated phosphorylation of ERK in A549 cells (Homo sapiens, UniProt P01116, G12S)"
readout_type = "IC50"
readout_value = 240

[[record]]
compound = "N#Cc1c(N)sc2c(F)ccc(-c3c(C(F)(F)F)cc4c(N5CCC(C(=O)Oc6ccccc6)CC5)nc(OC[C@@]56CCCN5C[C@H](F)C6)nc4c3F)c12"
assayed_target = "KRas-mediated phosphorylation of ERK in A549 cells (Homo sapiens, UniProt P01116, G12S)"
readout_type = "IC50"
readout_value = 14

[[record]]
compound = "CC(=O)N(C)C(=O)CCCNc1nc(OC[C@@]23CCCN2C[C@H](F)C3)nc2c(F)c(-c3ccc(F)c4sc(N)c(C#N)c34)c(Cl)cc12"
assayed_target = "KRas-mediated phosphorylation of ERK in A549 cells (Homo sapiens, UniProt P01116, G12S)"
readout_type = "IC50"
readout_value = 29

[[record]]
compound = "Cc1ccn(C(=O)CCNc2cc(-c3noc4c3CCC[C@@]43CCCc4sc(N)c(C#N)c43)nc(N3CCNC[C@@H]3C)n2)n1"
assayed_target = "KRas-mediated phosphorylation of ERK in A549 cells (Homo sapiens, UniProt P01116, G12S)"
readout_type = "IC50"
readout_value = 192

[[record]]
compound = "Cc1ccn(C(=O)C2CCCCCN(c3nc(OC[C@@]45CCCN4C[C@H](F)C5)nc4c(F)c(-c5ccc(F)c6sc(N)c(C#N)c56)c(Cl)cc34)C2)n1 (stereo partly shown)"
assayed_target = "KRas-mediated phosphorylation of ERK in A549 cells (Homo sapiens, UniProt P01116, G12S)"
readout_type = "IC50"
readout_value = 772

[[record]]
compound = "CON(C)C(=O)CCCN(C)c1nc(OC[C@@]23CCCN2C[C@H](F)C3)nc2c(F)c(-c3ccc(F)c4sc(N)c(C#N)c34)c(Cl)cc12"
assayed_target = "KRas-mediated phosphorylation of ERK in A549 cells (Homo sapiens, UniProt P01116, G12S)"
readout_type = "IC50"
readout_value = 278

[[record]]
compound = "COCCN(C(C)=O)C(=O)C1CCN(c2nc(OC[C@@]34CCCN3C[C@H](F)C4)nc3c(F)c(-c4ccc(F)c5sc(N)c(C#N)c45)c(Cl)cc23)CC1"
assayed_target = "KRas-mediated phosphorylation of ERK in A549 cells (Homo sapiens, UniProt P01116, G12S)"
readout_type = "IC50"
readout_value = 21


[a] CCc1c(F)ccc2cc(O)cc(-c3ncc4c(N5CCN(C(=O)n6ccc(C)n6)C6(CC6)C5)nc(OC[C@@]56CCCN5C[C@H](F)C6)nc4c3F)c12 (single isomer, unassigned)
[b] CN(CCCC(=O)N(C)c1ccccn1)c1nc(OC[C@@]23CCCN2C[C@H](F)C3)nc2c(F)c(-c3ccc(F)c4sc(N)c(C#N)c34)c(Cl)cc12
[c] N#Cc1c(N)sc2c(F)ccc(-c3c(Cl)cc4c(N5CCN(C(=O)n6ccnc6)CC5)nc(OC[C@@]56CCCN5C[C@H](F)C6)nc4c3F)c12
Put these in order: smallest IC50 first, largest last. Answer format: the labels, in the requested order. c, b, a
(c: 444 nM, b: 729 nM, a: 3820 nM)

[a] CCc1c(F)ccc2cc(O)cc(-c3ncc4c(N(C)CCCS(=O)(=O)n5cccn5)nc(OC[C@@]56CCCN5C[C@H](F)C6)nc4c3F)c12
[b] Cc1ccn(C(=O)CCCN(C)c2cc(O[C@@H](C)[C@@H]3CCCN3C)nc(-c3noc([C@@]4(C)CCCc5sc(N)c(C#N)c54)n3)n2)n1
Of a and b , whose reported IC50 is the larger number? Kindly give the label for the entry you pick. a
(a: 4350 nM, b: 96 nM)

[a] CCc1c(F)ccc2cc(O)cc(-c3ncc4c(N(CCCC(=O)n5ccc(C)n5)C5CC5)nc(OC[C@@]56CCCN5C[C@H](F)C6)nc4c3F)c12
[b] CCc1c(F)ccc2cc(O)cc(-c3ncc4c(N5CCN(C(=O)n6ccc(C)n6)C(CF)C5)nc(OC[C@@]56CCCN5C[C@H](F)C6)nc4c3F)c12 (stereo partly shown)
# returns the entry with the larger IC50; inputs a and b Give the label under which the chosen entry appears. b

[1] CCc1c(F)ccc2cc(O)cc(-c3ncc4c(N5CCC(C(=O)n6cccn6)CC5)nc(OC[C@@]56CCCN5C[C@H](F)C6)nc4c3F)c12
[2] CCc1c(F)ccc2cc(O)cc(-c3ncc4c(N5C[C@@H](C)N(C(=O)n6ccc(C)n6)[C@@H](C)C5)nc(OC[C@@]56CCCN5C[C@H](F)C6)nc4c3F)c12
Lower value of IC50 belongs to which: 1 or 2 ? The response must carry the label of the picked entry. 1
(1: 69 nM, 2: 3770 nM)

###

Target: KRas-mediated phosphorylation of ERK in A549 cells (Homo sapiens, UniProt P01116, G12S)
Construct: pERK HTRF read-out
Assay: Inhibition of KRas-mediated phosphorylation of ERK (HTRF), A549 cells
Format: cell-based
Conditions: HTRF pERK, 3 h incubation
READOUT_TYPE: IC50 (nM)

[a] CN(CCCC(=O)Nc1cccnc1)c1nc(OC[C@@]23CCCN2C[C@H](F)C3)nc2c(F)c(-c3ccc(F)c4sc(N)c(C#N)c34)c(Cl)cc12
[b] CCc1c(F)ccc2cc(O)cc(-c3ncc4c(N5CCC(C(=O)n6ccc(OC)n6)CC5)nc(OC[C@@]56CCCN5C[C@H](F)C6)nc4c3F)c12
[c] CCc1c(F)ccc2cc(O)cc(-c3ncc4c(NC[C@@H]5C[C@H]5C(=O)n5ccc(C)n5)nc(OC[C@@]56CCCN5C[C@H](F)C6)nc4c3F)c12 [Example 112]
# desc sort on IC50 across 3 molecules Please, when replying, give the labels in the order that was requested. a, b, c

###

Biological target: KRas-mediated phosphorylation of ERK in H358 cells (Homo sapiens, UniProt P01116, G12C)
Construct: pERK HTRF read-out
Sequence (P01116 1-188 isoform P01116-2 G12C): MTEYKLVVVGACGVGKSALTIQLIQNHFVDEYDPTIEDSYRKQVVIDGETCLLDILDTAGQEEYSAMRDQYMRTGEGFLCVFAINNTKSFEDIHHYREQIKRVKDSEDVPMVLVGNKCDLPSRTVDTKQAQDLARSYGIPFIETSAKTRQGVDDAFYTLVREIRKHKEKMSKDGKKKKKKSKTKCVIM
Assay: Inhibition of KRas-mediated phosphorylation of ERK (HTRF), H358 cells
Type: cell-based
Conditions: HTRF pERK, 3 h incubation
READOUT_TYPE: IC50 (nM)

Before answering, review these 4 worked examples.
[[record]]
molecule = "CN(CCCC(=O)N(C)c1ccncc1)c1nc(OC[C@@]23CCCN2C[C@H](F)C3)nc2c(F)c(-c3ccc(F)c4sc(N)c(C#N)c34)c(Cl)cc12 [Example 267]"
readout_value = 230

[[record]]
molecule = "CC(=O)N(C)C(=O)[C@@H]1C[C@H]1CNc1nc(OC[C@@]23CCCN2C[C@H](F)C3)nc2c(F)c(-c3ccc(F)c4sc(N)c(C#N)c34)c(Cl)cc12 [Example 238]"
readout_value = 84

[[record]]
molecule = "Cc1ccn(C(=O)C2CCCN(c3nc(OC[C@@]45CCCN4C[C@H](F)C5)nc4c(F)c(-c5ccc(F)c6sc(N)c(C#N)c56)c(Cl)cc34)CC2)n1 (stereo partly drawn) [Example 130]"
readout_value = 7

[[record]]
molecule = "CN(CCNC(=O)n1cncn1)c1nc(OC[C@@]23CCCN2C[C@H](F)C3)nc2c(F)c(-c3ccc(F)c4sc(N)c(C#N)c34)c(Cl)cc12 [Example 228]"
readout_value = 9


[A] CCc1c(F)ccc2cc(O)cc(-c3ncc4c(N5CC6CC(C(=O)N(C)C(C)=O)CC6C5)nc(OC[C@@]56CCCN5C[C@H](F)C6)nc4c3F)c12 (stereo partly drawn) [Example 279]
[B] CN(C=O)C(=O)CCCN(C)c1nc(OC[C@@]23CCCN2C[C@H](F)C3)nc2c(F)c(-c3ccc(F)c4sc(N)c(C#N)c34)c(Cl)cc12 [Example 235]
Compare IC50: is it lower for A or for B ? Output the label that corresponds to your choice. B
(B: 60 nM, A: 4900 nM)

Attribution: patent US20260356856A1
